Where do the numbers come from? From ChEMBL document CHEMBL5042493.

Could you please report measured half-life for the items listed next?
- Protocol notes: Half life in Cynomolgus monkey at 1 mg/kg, iv measured upto 24 hrs
- Format: ADME, organism-based, Macaca fascicularis
- Details: in vivo
Note: unit h is implicit; provide only the numeric part.

The reported half-life of the compound C[C@H](NCc1ccc(OCc2cccc(F)c2)cc1)C(N)=O [SAFINAMIDE] was 2.74

The reported half-life of the compound NC(=O)[C@@H]1C[C@H](F)CN1Cc1ccc(OCc2cccc(F)c2)cc1 was 1.77

* * *

- Protocol notes: Metabolic stability in dog liver microsome assessed as half life at 1 uM measured after 60 min in presence of NADPH by LC-MS/MS analysis
- Assay type: ADME, Canis lupus familiaris
- Details: liver microsomes
Measured metric: half-life at 1 µM (min)
Note: unit min is implicit; provide only the numeric part.

The reported half-life at 1 µM of the molecule NC(=O)[C@@H]1C[C@H](F)CN1Cc1ccc(OCc2cccc(F)c2)cc1 was 51.1
